- Assayed Target: T1, human CD70, full length, on CHO cells (CHO-human CD70-B07) (human, UniProt P32970 1-193)
- T1 construct: whole, on cells; Stably transfected CHO cells; also called CHO-CD70
- T1 sequence (looked up): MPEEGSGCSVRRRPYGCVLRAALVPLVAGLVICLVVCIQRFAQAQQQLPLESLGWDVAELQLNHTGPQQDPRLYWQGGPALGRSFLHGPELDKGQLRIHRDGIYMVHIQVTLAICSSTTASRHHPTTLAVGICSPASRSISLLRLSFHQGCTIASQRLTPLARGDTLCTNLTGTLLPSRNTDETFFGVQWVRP
- Run Description: flow cytometry, Fab on CHO-human CD70 cells
Measured pEC50 accompanies every entry in the list below.
Kindly note that pEC50 refers to -log10 of the concentration in mol/L and answer with the value alone.

32D1 Fab antibody (Fab, V domains shown, Purified Fab from the mouse Fab phage display library) VH: EVQLQQSGPELVKPGASLKMSCKASGYTFTDYVIHWVKQKPGQGLEWIGYLHPYNDDTKYNEKFKGKATLTSDKSSSTAYMELNSLTSEDSAVYYCARRGYYDYAWFADWGQGTLVTVSA VL: DIVLTQSPASLAVSLGQRATISCKASKSVSASGYTWMHWYQQKPGQAPKLLIYLASNLESGVPARFSGSGSGTDFTLNIHPVEEEDAATYYCQHSRELPPTFGGGTKLEIK; 8.09
12A1 Fab antibody (Fab, V domains shown, Purified Fab from the mouse Fab phage display library) VH: QVQLQQSGPGLVQPSQSLSITCTVSGFSLTTYAVHWVRQSPGKGLEWLGVIWSTGITDYNAAFISRLSISKDNSKSQVFFKMDSLQSDDTAIYFCARNPHYGNLNAMDYWGQGTSVTVSS VL: DIVLTQSPASLAVSLGQRATISCRASKSVSASGYTWMHWYQQKPGQAPKLLIYLASNLESGVPARFSGSGSGTDFTLNIHPVEEEDAATYYCQHSRELPPTFGGGTKLEIK; 7.75

Exercise: # return recorded pEC50 for input 14C12 Fab antibody (Fab, V domains shown, Purified Fab from the mouse Fab phage display library) VH: EVQLQQSGPELVKPGASVKMSCKASGYTFTDYVIHWVKQKPGQGLEWIGYLHPYNDDTKYNEKFKGKATLTSDKSSSTAYMELSSLTSEDSAVYYCARRGYYDYAWFADWGQGTLVTVSA VL: DIVLTQSPASLAVSLGQRATISCRASKSVSASGYTWIHWYQQKPRQAPKLLIYLASNLESGVPARFSGSGSGTDFTLNIHPVEEEDAATYYCQHSRELPPTFGGGTKLEIK
Key: 7.55
